biological target: β-secretase(BACE) (Homo sapiens); construct: purchased Panvera; assay: BACE FS1% Inhibition Assay; format: biochemical; conditions: 0.3 μM test compound; FS1 substrate; 0.3 µM
Sequence (P56817 46-501): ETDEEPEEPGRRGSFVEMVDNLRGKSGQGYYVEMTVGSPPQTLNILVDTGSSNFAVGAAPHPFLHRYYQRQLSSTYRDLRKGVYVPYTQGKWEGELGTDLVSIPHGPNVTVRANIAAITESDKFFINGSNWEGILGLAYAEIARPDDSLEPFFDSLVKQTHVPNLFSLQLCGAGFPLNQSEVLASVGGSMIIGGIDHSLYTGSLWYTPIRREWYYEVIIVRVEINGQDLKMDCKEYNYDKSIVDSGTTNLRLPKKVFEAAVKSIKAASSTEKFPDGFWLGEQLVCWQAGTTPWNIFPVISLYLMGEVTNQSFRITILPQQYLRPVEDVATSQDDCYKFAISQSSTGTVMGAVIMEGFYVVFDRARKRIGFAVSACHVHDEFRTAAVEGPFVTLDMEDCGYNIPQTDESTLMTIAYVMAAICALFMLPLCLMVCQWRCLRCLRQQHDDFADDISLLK
Please go through the items and note down their % Inhibition (FS) 0.3 μM.

Query string: Form: Entry = `COc1ccccc1-c1ccc2c(c1)CN(CCNC(=O)C1CCCCC1)C(N)=N2` | System = β-secretase(BACE) (Homo sapiens) | % Inhibition (FS) 0.3 μM = ____
Result string: <30%

Query string: Form: Entry = CCCC(CNC(=O)C1CCCCC1)N1Cc2cc(Oc3ccccc3)ccc2N=C1N (stereo not drawn) [Compound 554] | System = β-secretase(BACE) (Homo sapiens) | % Inhibition (FS) 0.3 μM = ____
Result string: <30%

Query string: Form: Entry = CCCC(CNC(=O)C12CC3CC(CC(C3)C1)C2)N1Cc2cc(Oc3ccccc3)ccc2N=C1N (stereo not drawn) [Compound 555] | System = β-secretase(BACE) (Homo sapiens) | % Inhibition (FS) 0.3 μM = ____
Result string: <30%
